Origin of measurements: paper doi:10.1101/2024.07.10.602929

measured.target: LC3A (human, UniProt Q9H492 1-121)
protocol.description: BLI
Where no end group is shown, it is not given here. The star is where a group is joined. Biotin = O=C1N[C@H]2[C@H](CS[C@H]2CCCCC(=O)*)N1
observation.type: Kd
Number plus unit, in that order.

As a guide, the following entries are already answered.
* Biotin-STAENAEYLRVAPQSSEFIGA [EGFR LIR2 peptide (EGFR residues 1190–1210), N-terminally biotinylated] | 648 µM
* Biotin-ALTEDSIDDTFLPVPEYINQSVPK [EGFR LIR1 peptide (EGFR residues 1076–1099), N-terminally biotinylated] | 231 µM

Then this binder:
The value of Kd measured for the binder Biotin-ISQKSDEEDFVKVED [PCM1 LIR peptide (pericentriolar material 1 protein residues 1954-1968), N-terminally biotinylated] turned out to be 118 µM
